Target: Fibroblast growth factor 2 (Homo sapiens)
Assay: FGF2 binders on small-molecule microarrays, primary screen, biochemical, small-molecule microarray, 635/667 nm fluorescence (AID 1133)
Conditions: small-molecule microarray binding, FGF2, fluorescence 635/667; higher = more signal
Each record here notes measured composite z-score.
Please reply with the number alone, leaving off any unit.

Observe how each entry below is paired with its result.
Compound: COc1ccc(COC(=O)NN=C2C[C@@H](O)[C@@H](O)[C@@H]3[C@@H]4C(=O)N(c5cccc(Oc6ccccc6)c5)C(=O)[C@@H]4CC[C@@H]23)cc1
Property name: composite z-score
Assay result: -0.415
--
Compound: CCOC(=O)[C@H](CC(C)C)NC(=O)CCC1CC(OC(=O)NCc2ccc3c(c2)OCO3)CC2(CCCC(COC(=O)NCC3CCCCC3)O2)O1 (some centres not stated)
Property name: composite z-score
Assay result: 0.928
--
Compound: O=C1C[C@@H](O)[C@@H](O)[C@@H]2[C@@H]3C(=O)N(C[C@@H]4CCCO4)C(=O)[C@@H]3CC[C@@H]12
Property name: composite z-score
Assay result: 0.657
--
Compound: C[C@H]1COC(=O)[C@@H]2CCCN2C(=O)[C@@H](C)COC(=O)[C@H](Cc2ccccc2)NC1=O
Property name: composite z-score
Assay result: 0.458

Lookup: Can you share its composite z-score? I mean this compound: CCOC(=O)[C@H](Cc1ccccc1)NC(=O)CCC1CC(OC(=O)NCCc2ccc(F)cc2)CC2(CCCC(COC(=O)NCc3ccccc3)O2)O1 (some centres not stated)
Found: 0.473

Lookup: Similarly, "Cn1c(=O)n2n(c1=O)[C@H]1[C@H](O)[C@@H]3O[C@@H]3C(=O)[C@H]1CC2" ?
Found: 0.348

Lookup: Similarly, "CO[C@H]1COC(=O)[C@@H](C)COC(=O)[C@H](COCc2ccccc2)NC(=O)CC=C[C@H]1C" ?
Found: 1.21

###

Experiment: small-molecule binders of probe aLefty1, primary screen, biochemical, small-molecule microarray, 635/667 nm fluorescence (AID 1153);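 further: score merges spot fluorescence with signal-to-noise ratio from the scanned slide images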
Conditions: higher = more signal
Property name: composite z-score
Please reply with the number alone, leaving off any unit.

Observe how each entry below is paired with its result.
Compound: Cc1cc2c(nc1C)CCCN2CC(O)CN1CCCc2nc(C)c(C)cc21
composite z-score: 0.547
//
Compound: C[C@@H]1CC[C@H]2C(=O)O[C@@H](COc3ccc(C(C)(C)C)cc3)CN2[C@@H]1c1ccc(Br)cc1
composite z-score: -0.229

Lookup: Can you share its composite z-score? I mean this compound: "CCCNC(=O)OC[C@H]1O[C@H](CCON=C(C)CCC(=O)OC[C@H]2O[C@H](c3ccccc3)C=C[C@@H]2Oc2ccc(OC)cc2)C=C[C@@H]1Oc1ccc(OC)cc1"
Found: -0.0477

Lookup: Similarly, O=C1CCCC(C2=CCCCC2=O)C1 (centres undefined) ?
Found: -0.0224

###

Target: Torsin-1A-interacting protein 2 (Homo sapiens)
Experiment: LULL1 binders on small-molecule microarray, primary screen, cell lysate, human LULL1 lysate, 635/667 nm fluorescence (AID 1092);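 further: probe is lysate of COS7 cells overexpressing human LULL1; score merges per-feature 667 nm fluorescence with signal-to-noise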
Details: hLULL1 lysate binding, 635 nm fluorescence, higher = more signal
Property name: composite z-score

Molecule: CC(C)=CCCC(C)=CCON=C1C[C@@H](O)[C@@H](O)[C@@H]2[C@@H]3C(=O)N(c4cccc(Oc5ccccc5)c4)C(=O)[C@@H]3CC[C@@H]12
Study target: Torsin-1A-interacting protein 2 (Homo sapiens)
composite z-score: 1.15
--
Molecule: C=Cc1ccc([C@H]2N[C@H](C(=O)O)CC[C@@H]2C)cc1
Study target: Torsin-1A-interacting protein 2 (Homo sapiens)
composite z-score: -0.447
--
Molecule: COc1cccc([C@H]2Oc3ccc(OC)cc3C(=NOC[C@@H](O)COCc3ccco3)[C@@H]2O)c1
Study target: Torsin-1A-interacting protein 2 (Homo sapiens)
composite z-score: -1.32

Lookup: Can you share its composite z-score? I mean this molecule: "CSCC[C@@H]1NC(=O)CC=C[C@@H](C)COC(=O)[C@@H](C)COC1=O"
Found: 0.0424

Lookup: Similarly, "C=CC1=C[C@H](O)[C@@H]2O[C@@H]2C12OCCCO2" ?
Found: -0.119

Lookup: Similarly, COC(=O)[C@H](C)NC(=O)CCC1CC(OC(=O)NCc2ccc3c(c2)OCO3)CC2(CCCC(COC(=O)NCCc3ccccc3OC)O2)O1 (stereo partly drawn) ?
Found: 1.89

Lookup: Similarly, "CC(C)CON=C1C[C@@H](O)[C@@H](O)[C@@H]2[C@@H]3C(=O)N(C4CCCCC4)C(=O)[C@@H]3CC[C@H]12" ?
Found: 1.1

Lookup: Similarly, CCOC(=O)[C@H](CC(C)C)NC(=O)CCC1CC(OC(=O)NCc2cccc3ccccc23)CC2(CCCC(COC(=O)NCCOc3ccccc3)O2)O1 (stereo partly drawn) ?
Found: 1.13
